- Experimental target: T1, ZIKV-VLP (Native Antigen Inc.) (Zika virus)
- T1 construct: also called Zika VLP; ZVLP
- Method notes: BLI binning on ZIKV-VLP; 1st mAb (row): C10
What response of 2nd mAb was measured for each of the following?
Give bare numbers.

anti-ZIKV antibody 306-2 (antibody, V domains shown) VH: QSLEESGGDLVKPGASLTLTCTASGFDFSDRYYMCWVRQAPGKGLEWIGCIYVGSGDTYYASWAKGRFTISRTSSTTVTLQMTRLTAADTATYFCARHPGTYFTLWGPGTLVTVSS VL: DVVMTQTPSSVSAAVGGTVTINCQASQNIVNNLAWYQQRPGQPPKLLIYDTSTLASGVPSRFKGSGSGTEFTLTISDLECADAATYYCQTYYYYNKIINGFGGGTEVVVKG | -0.0006
anti-ZIKV antibody 289-3 (antibody, V domains shown, also called clone 289-3; subclone 289-3) VH: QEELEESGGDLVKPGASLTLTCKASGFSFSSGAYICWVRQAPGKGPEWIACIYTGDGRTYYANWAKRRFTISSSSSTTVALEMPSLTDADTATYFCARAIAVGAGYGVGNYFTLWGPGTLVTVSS VL: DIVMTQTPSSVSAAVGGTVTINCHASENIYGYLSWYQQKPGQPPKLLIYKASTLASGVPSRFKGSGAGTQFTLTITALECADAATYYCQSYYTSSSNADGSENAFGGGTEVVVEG | 0.0265
anti-ZIKV antibody 270-12 (antibody, V domains shown, also called clone 270-12) VH: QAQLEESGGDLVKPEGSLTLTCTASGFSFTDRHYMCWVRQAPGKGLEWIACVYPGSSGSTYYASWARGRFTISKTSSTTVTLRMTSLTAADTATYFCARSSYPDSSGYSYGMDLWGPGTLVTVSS VL: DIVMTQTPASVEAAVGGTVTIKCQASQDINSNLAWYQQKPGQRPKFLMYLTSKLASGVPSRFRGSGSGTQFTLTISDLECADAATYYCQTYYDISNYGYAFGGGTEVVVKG | 0.0344

Here is another binder to look at.
### Prompt Please look at this binder and report its response of 2nd mAb: anti-ZIKV antibody 242-3 (antibody, V domains shown, also called clone 242-3) VH: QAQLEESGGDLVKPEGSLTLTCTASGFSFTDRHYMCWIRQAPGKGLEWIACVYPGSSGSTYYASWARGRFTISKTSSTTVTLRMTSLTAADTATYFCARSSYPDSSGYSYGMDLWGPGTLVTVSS VL: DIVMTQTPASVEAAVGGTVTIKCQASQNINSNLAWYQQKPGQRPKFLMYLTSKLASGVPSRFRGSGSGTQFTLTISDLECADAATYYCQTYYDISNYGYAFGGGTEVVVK
### Response 0.0363
